Every entry's value here was drawn from the NIST ThermoML archive (doi:10.1021/je200788z).

test_method_notes: refractive index (Na D-line) (dimensionless)
applied_conditions: 293.15 K; 101.33 kPa; Liquid; Standard Abbe refractometry
Reported refractive index values follow for various compounds
measured_parameter: refractive index

>  <compound>
CC(C)OC(=O)[C@@H]1CCC[NH2+]1.CCCCCCCCCCCCOS(=O)(=O)[O-] [(S)-2-(isopropoxycarbonyl)pyrrolidin-1-ium dodecyl sulfate]

>  <measured_parameter>
refractive index

>  <readout_number>
1.4559

$$$$
>  <compound>
CC(C)COC(=O)[C@@H]1CCC[NH2+]1.CCCCCCCCCCCCOS(=O)(=O)[O-] [(S)-2-(isobutoxycarbonyl)pyrrolidinium dodecyl sulfate]

>  <measured_parameter>
refractive index

>  <readout_number>
1.4623

$$$$
>  <compound>
CC(C)OC(=O)CC[C@H]([NH3+])C(=O)OC(C)C.CCCCCCCCCCCCOS(=O)(=O)[O-]

>  <measured_parameter>
refractive index

>  <readout_number>
1.4559

$$$$
>  <compound>
CC(C)COC(=O)[C@@H](N)C(C)C.CCCCCCCCCCCCOS(=O)(=O)O [isobutyl L-valinate dodecyl sulfate]

>  <measured_parameter>
refractive index

>  <readout_number>
1.4555

$$$$
>  <compound>
CC(C)COC(=O)[C@H](C)[NH3+].CCCCCCCCCCCCOS(=O)(=O)[O-] [(S)-1-isobutoxy-1-oxopropan-2-aminium dodecyl sulfate]

>  <measured_parameter>
refractive index

>  <readout_number>
1.454

$$$$
>  <compound>
CC(C)OC(=O)[C@@H]([NH3+])C(C)C.CCCCCCCCCCCCOS(=O)(=O)[O-]

>  <measured_parameter>
refractive index

>  <readout_number>
1.4541

$$$$

---

test_method_notes: refractive index (Na D-line) (dimensionless)
applied_conditions: 308.15 K; 101.33 kPa; Liquid; Standard Abbe refractometry
Reported refractive index values follow for various molecules

>  <molecule>
CC(C)COC(=O)[C@H](C)[NH3+].CCCCCCCCCCCCOS(=O)(=O)[O-] [(S)-1-isobutoxy-1-oxopropan-2-aminium dodecyl sulfate]

>  <refractive index>
1.4479

$$$$
>  <molecule>
CC(C)COC(=O)[C@@H](N)C(C)C.CCCCCCCCCCCCOS(=O)(=O)O [isobutyl L-valinate dodecyl sulfate]

>  <refractive index>
1.4505

$$$$
>  <molecule>
CC(C)COC(=O)[C@@H]1CCC[NH2+]1.CCCCCCCCCCCCOS(=O)(=O)[O-] [(S)-2-(isobutoxycarbonyl)pyrrolidinium dodecyl sulfate]

>  <refractive index>
1.4549

$$$$
>  <molecule>
CC(C)OC(=O)C[NH3+].CCCCCCCCCCCCOS(=O)(=O)[O-] [2-isopropoxy-2-oxoethan-1-aminium dodecyl sulfate]

>  <refractive index>
1.4603

$$$$
>  <molecule>
CC(C)OC(=O)[C@@H]1CCC[NH2+]1.CCCCCCCCCCCCOS(=O)(=O)[O-] [(S)-2-(isopropoxycarbonyl)pyrrolidin-1-ium dodecyl sulfate]

>  <refractive index>
1.451

$$$$
>  <molecule>
CC(C)OC(=O)CC[C@H]([NH3+])C(=O)OC(C)C.CCCCCCCCCCCCOS(=O)(=O)[O-]

>  <refractive index>
1.4509

$$$$
>  <molecule>
CC(C)COC(=O)C[NH3+].CCCCCCCCCCCCOS(=O)(=O)[O-] [2-isobutoxy-2-oxoethan-1-aminium dodecyl sulfate]

>  <refractive index>
1.4592

$$$$
>  <molecule>
CC(C)OC(=O)[C@@H]([NH3+])C(C)C.CCCCCCCCCCCCOS(=O)(=O)[O-]

>  <refractive index>
1.4495

$$$$

---

Reported speed of sound values follow for various molecules
applied_conditions: 333.15 K; 101.33 kPa; Liquid; Sing-around technique in a fixed-path interferometer

>  <molecule>
CC(C)OC(=O)CC[C@H]([NH3+])C(=O)OC(C)C.CCCCCCCCCCCCOS(=O)(=O)[O-]

>  <speed of sound, m/s>
1263.5

$$$$
>  <molecule>
CC(C)OC(=O)[C@@H]1CCC[NH2+]1.CCCCCCCCCCCCOS(=O)(=O)[O-] [(S)-2-(isopropoxycarbonyl)pyrrolidin-1-ium dodecyl sulfate]

>  <speed of sound, m/s>
1311.7

$$$$
>  <molecule>
CC(C)COC(=O)[C@H](C)[NH3+].CCCCCCCCCCCCOS(=O)(=O)[O-] [(S)-1-isobutoxy-1-oxopropan-2-aminium dodecyl sulfate]

>  <speed of sound, m/s>
1275.8

$$$$
>  <molecule>
CC(C)OC(=O)C[NH3+].CCCCCCCCCCCCOS(=O)(=O)[O-] [2-isopropoxy-2-oxoethan-1-aminium dodecyl sulfate]

>  <speed of sound, m/s>
1274.6

$$$$
>  <molecule>
CC(C)OC(=O)[C@@H]([NH3+])C(C)C.CCCCCCCCCCCCOS(=O)(=O)[O-]

>  <speed of sound, m/s>
1286.6

$$$$
>  <molecule>
CC(C)COC(=O)CC[C@H]([NH3+])C(=O)OCC(C)C.CCCCCCCCCCCCOS(=O)(=O)[O-]

>  <speed of sound, m/s>
1299.9

$$$$
>  <molecule>
CC(C)COC(=O)C[NH3+].CCCCCCCCCCCCOS(=O)(=O)[O-] [2-isobutoxy-2-oxoethan-1-aminium dodecyl sulfate]

>  <speed of sound, m/s>
1277.6

$$$$
>  <molecule>
CC(C)COC(=O)[C@@H]1CCC[NH2+]1.CCCCCCCCCCCCOS(=O)(=O)[O-] [(S)-2-(isobutoxycarbonyl)pyrrolidinium dodecyl sulfate]

>  <speed of sound, m/s>
1316.8

$$$$
>  <molecule>
CC(C)COC(=O)[C@@H](N)C(C)C.CCCCCCCCCCCCOS(=O)(=O)O [isobutyl L-valinate dodecyl sulfate]

>  <speed of sound, m/s>
1299.9

$$$$

---

Reported mass density values follow for various molecules
applied_conditions: 308.15 K; 101.33 kPa; Liquid; Vibrating tube method
± gives the expanded uncertainty stated by the source.

>  <molecule>
CC(C)COC(=O)C[NH3+].CCCCCCCCCCCCOS(=O)(=O)[O-] [2-isobutoxy-2-oxoethan-1-aminium dodecyl sulfate]

>  <mass density>
1009.88 ± 5.5 kg/m3

$$$$
>  <molecule>
CC(C)OC(=O)[C@@H]1CCC[NH2+]1.CCCCCCCCCCCCOS(=O)(=O)[O-] [(S)-2-(isopropoxycarbonyl)pyrrolidin-1-ium dodecyl sulfate]

>  <mass density>
1039.52 ± 5.8 kg/m3

$$$$
>  <molecule>
CC(C)OC(=O)CC[C@H]([NH3+])C(=O)OC(C)C.CCCCCCCCCCCCOS(=O)(=O)[O-]

>  <mass density>
1042.57 ± 5.9 kg/m3

$$$$
>  <molecule>
CC(C)COC(=O)[C@@H]1CCC[NH2+]1.CCCCCCCCCCCCOS(=O)(=O)[O-] [(S)-2-(isobutoxycarbonyl)pyrrolidinium dodecyl sulfate]

>  <mass density>
1028.57 ± 5.7 kg/m3

$$$$
>  <molecule>
CC(C)OC(=O)C[NH3+].CCCCCCCCCCCCOS(=O)(=O)[O-] [2-isopropoxy-2-oxoethan-1-aminium dodecyl sulfate]

>  <mass density>
1021.37 ± 5.6 kg/m3

$$$$
>  <molecule>
CC(C)OC(=O)[C@@H]([NH3+])C(C)C.CCCCCCCCCCCCOS(=O)(=O)[O-]

>  <mass density>
1018.71 ± 5.6 kg/m3

$$$$
>  <molecule>
CC(C)COC(=O)[C@H](C)[NH3+].CCCCCCCCCCCCOS(=O)(=O)[O-] [(S)-1-isobutoxy-1-oxopropan-2-aminium dodecyl sulfate]

>  <mass density>
1034.13 ± 5.8 kg/m3

$$$$

---

Reported speed of sound values follow for various molecules
applied_conditions: 328.15 K; 101.33 kPa; Liquid; Sing-around technique in a fixed-path interferometer
measured_parameter: speed of sound (m/s)

>  <molecule>
CC(C)COC(=O)[C@H](C)[NH3+].CCCCCCCCCCCCOS(=O)(=O)[O-] [(S)-1-isobutoxy-1-oxopropan-2-aminium dodecyl sulfate]

>  <readout_number>
1291.2

$$$$
>  <molecule>
CC(C)OC(=O)CC[C@H]([NH3+])C(=O)OC(C)C.CCCCCCCCCCCCOS(=O)(=O)[O-]

>  <readout_number>
1279.2

$$$$
>  <molecule>
CC(C)COC(=O)C[NH3+].CCCCCCCCCCCCOS(=O)(=O)[O-] [2-isobutoxy-2-oxoethan-1-aminium dodecyl sulfate]

>  <readout_number>
1292.5

$$$$
>  <molecule>
CC(C)COC(=O)[C@@H](N)C(C)C.CCCCCCCCCCCCOS(=O)(=O)O [isobutyl L-valinate dodecyl sulfate]

>  <readout_number>
1318.1

$$$$
>  <molecule>
CC(C)COC(=O)[C@@H]1CCC[NH2+]1.CCCCCCCCCCCCOS(=O)(=O)[O-] [(S)-2-(isobutoxycarbonyl)pyrrolidinium dodecyl sulfate]

>  <readout_number>
1332.9

$$$$
>  <molecule>
CC(C)OC(=O)[C@@H]1CCC[NH2+]1.CCCCCCCCCCCCOS(=O)(=O)[O-] [(S)-2-(isopropoxycarbonyl)pyrrolidin-1-ium dodecyl sulfate]

>  <readout_number>
1326

$$$$
>  <molecule>
CC(C)COC(=O)CC[C@H]([NH3+])C(=O)OCC(C)C.CCCCCCCCCCCCOS(=O)(=O)[O-]

>  <readout_number>
1314.4

$$$$
>  <molecule>
CC(C)OC(=O)[C@@H]([NH3+])C(C)C.CCCCCCCCCCCCOS(=O)(=O)[O-]

>  <readout_number>
1301.9

$$$$
>  <molecule>
CC(C)OC(=O)C[NH3+].CCCCCCCCCCCCOS(=O)(=O)[O-] [2-isopropoxy-2-oxoethan-1-aminium dodecyl sulfate]

>  <readout_number>
1289.6

$$$$
